- Experiment Notes: soluble fraction after stress (log2 fold change); higher = more stays soluble; pooled small domains, quantitative proteomics
- Recorded Conditions: stress: 50 degC
Kindly supply the reported soluble fraction (log2) values for the records listed here.

Answered examples (2):
HMPQQVFKREDLQKWGLTGQADSRKRREKLGQLLGIGYGNGKQLIHRLNMFQVDRATFEQAIKQINQEEDH :: -0.423
HMPAVTEQTRANLRTAFWSLYREKPTSKITVREITDRAGYNRATFYLYYRDVYDLFEQIEQEIL :: -2.36

Quick one: give me soluble fraction (log2) for each item below, same order please.
1. HMNKMHKLPSVSEILNKVRLQKIHNESFIKFKIKEEIDRYRKLAKKDQLFLSRDEITYEIIEKLLNFSMPS
2. HMQEERDISFIKIHLEPGHPWRGRALRELMPLKDLLIVMVVRGEDTIVPNGDTRLEEGDLLVLAAYPFEE
3. HMSRGTLFVDVRGAVAKPGVYELPEKSRVFQAVEAAGGLLPEALERLVNQAAELTDGQQVYIPFEGEE
4. HMWGQDVLFTIDKKEFKGKLLEQSDKHTTFLPDGQKTPQKIPNRLIKEIHLGSNKIIDFGNDFLI
5. HMYYIITNGKYWVIENPIRPGEYMESTKSSNAKQFTFKQAKNLLNARSKKLGWIRNGYSMVGED
6. HMPESFSEMQKRTGVGEFSDDALSAKYVDSIDADVMSLDEYIMKVRGISLDDLEAERALRAR

1. -2.57
2. -0.436
3. 0.296
4. -0.179
5. -2.22
6. 0.0325

Where these numbers come from: the domain aggregation screens of Martell et al. (2025)
